Assay: Solubility screening of the compound of Formula IV (freebase) in solvent mixtures
Assay type: physicochemical
Settings: organic solvent or mixture; Acetone:heptane (1:1), approximately 25° C.
reported property: solubility (µg/mL)
Give bare numbers, in µg/mL.

Enquiry: Would you kindly share the measured solubility for CC(C)(O)COc1cc(-c2ccc(N3CCC(O)(Cc4ccccn4)CC3)nc2)c2c(C#N)cnn2c1 ?
Return: 6100

---

Experiment: Solvent solubility screen of the compound of Formula II
Assay type: physicochemical
Conditions: MeOAc, 40 °C, organic solvent or mixture, thermodynamic from solid; read-out: Approximate solubility
reported property: solubility

Enquiry: Would you kindly share the measured solubility for COc1ccc(CN2C3CC2CN(c2ccc(-c4cc(OCC(C)(C)O)cn5ncc(C#N)c45)cn2)C3)cn1 [compound of Formula II] ?
Return: < 5000 µg/mL
